TARGET_UNDER_TEST: ACVR1 (human) (UniProt Q04771)
Sequence (Q04771 whole entry, looked up): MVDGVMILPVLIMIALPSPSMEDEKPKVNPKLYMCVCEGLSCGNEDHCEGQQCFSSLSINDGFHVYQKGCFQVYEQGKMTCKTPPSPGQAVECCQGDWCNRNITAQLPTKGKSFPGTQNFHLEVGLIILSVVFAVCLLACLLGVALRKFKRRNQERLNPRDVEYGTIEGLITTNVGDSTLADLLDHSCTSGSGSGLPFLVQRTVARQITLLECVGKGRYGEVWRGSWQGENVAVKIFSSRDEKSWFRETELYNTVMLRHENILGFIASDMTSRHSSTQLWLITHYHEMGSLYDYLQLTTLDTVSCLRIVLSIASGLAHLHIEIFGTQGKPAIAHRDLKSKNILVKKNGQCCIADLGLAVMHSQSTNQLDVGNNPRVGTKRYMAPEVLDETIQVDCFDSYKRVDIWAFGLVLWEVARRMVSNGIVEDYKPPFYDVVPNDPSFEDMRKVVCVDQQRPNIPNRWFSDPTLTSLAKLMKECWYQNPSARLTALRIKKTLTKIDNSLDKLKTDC
TEST_SUMMARY: radiometric filter-binding kinase assay, Kinase HotSpot
EXPERIMENTAL_SETUP: compound 0.5 µM; ATP 10 µM
Each entry below carries its recorded residual activity.
MEASURED_ENDPOINT: residual activity (%)

> print(dat)
                          compound.structure               target.under.test  numeric.result
 1      CN(C)c1ccc(/C=C2\C(=O)Nc3ccccc32)cc1  ACVR1 (human) (UniProt Q04771)             104
 2  C[C@@H]1CCN(C(=O)CC#N)C[C@@H]1N(C)c1ncnc2[nH]ccc12  ACVR1 (human) (UniProt Q04771)             104
 3               O=C1c2ccccc2-c2nc3nnnn3nc21  ACVR1 (human) (UniProt Q04771)            93.1
 4  COc1cc2ncnc(Nc3ccc(OCc4ccccc4)cc3)c2cc1OC  ACVR1 (human) (UniProt Q04771)             101
 5  CN(C)CCCn1cc(C2=C(c3c[nH]c4ccccc34)C(=O)NC2=O)c2ccccc21  ACVR1 (human) (UniProt Q04771)            96.3
 6               c1ccc2c(-c3ccncc3)c[nH]c2c1  ACVR1 (human) (UniProt Q04771)            94.7
 7    COc1ccc(Cl)cc1NC(=O)Nc1cc(C)nc2ccccc12  ACVR1 (human) (UniProt Q04771)            76.2
 8    O=C1NC(=O)c2c1c1c3ccccc3[nH]c1n1cncc21  ACVR1 (human) (UniProt Q04771)             103
 9  O=C1Nc2ccc(Br)cc2/C1=C\c1cc2c([nH]1)CCCC2  ACVR1 (human) (UniProt Q04771)              97
10  COc1cc2ncnc(Nc3ccc(Oc4ccccc4)cc3)c2cc1OC  ACVR1 (human) (UniProt Q04771)            93.7
11  COc1cc(Nc2c(C#N)cnc3cc(OCCCN4CCN(C)CC4)c(OC)cc23)c(Cl)cc1Cl  ACVR1 (human) (UniProt Q04771)            93.3
12   N#C/C(=C\c1ccc(O)c(O)c1)C(=O)NCc1ccccc1  ACVR1 (human) (UniProt Q04771)            91.3
13  COc1ccc2c(c1)c(C1=C(c3c[nH]c4ccccc34)C(=O)NC1=O)cn2CCCN(C)C  ACVR1 (human) (UniProt Q04771)              98
14           Ic1cccc(CSc2nnc(-c3ccncc3)o2)c1  ACVR1 (human) (UniProt Q04771)            97.4
15  Cn1c2ccccc2c2c3c(c4c5ccccc5n(CCC#N)c4c21)CNC3=O  ACVR1 (human) (UniProt Q04771)             155
16  O=C1C(Cl)=C(N2C(=O)CCC2=O)C(=O)c2ccccc21  ACVR1 (human) (UniProt Q04771)            96.9
17  O=C(c1cc2cc(O)ccc2[nH]1)c1cc2cc(O)ccc2[nH]1  ACVR1 (human) (UniProt Q04771)             123
18  COc1ccc(C(=O)Nc2sc3c(c2C(N)=O)CCCC3)cc1OC  ACVR1 (human) (UniProt Q04771)             159
19  N#Cc1c[nH]c2c[nH]/c(=N\Cc3cccnc3)cc2/c1=N\c1ccc(F)c(Cl)c1  ACVR1 (human) (UniProt Q04771)            95.6
20  CN(C)S(=O)(=O)c1ccc2c(c1)/C(=C/c1cc3c([nH]1)CCCC3)C(=O)N2  ACVR1 (human) (UniProt Q04771)            98.6
21  NC(=O)c1cccc(-c2cc(Nc3ccc(OC(F)(F)F)cc3)ncn2)c1  ACVR1 (human) (UniProt Q04771)            99.4
